Form field: melting point (one value per entry).

Solved cases (8 shown):
COMPOUND: COc1cc2c(Oc3ccc(NS(=O)(=O)c4cc(Cl)cc(Cl)c4OC)cc3F)ccnc2cc1OCCCN1CCOCC1 [Example 76]
melting point: 189 to 191 °C

COMPOUND: COC(=O)c1sccc1S(=O)(=O)Nc1ccc(Oc2ccnc3cc(OCCCN4CCCC(C)C4)c(OC)cc23)c(F)c1 (stereo not drawn) [Example 66]
melting point: 132 to 134 °C

COMPOUND: COc1cc2c(Oc3c(Cl)cc(NS(=O)(=O)c4c(F)cccc4F)cc3Cl)ccnc2cc1OCCCN1CCC(C)CC1 [Example 209]
melting point: 146 to 151 °C

COMPOUND: COc1cc2c(Oc3cccc(NS(=O)(=O)c4sc(NC(C)=O)nc4C)c3)ccnc2cc1OCCCN1CCN(C)CC1 [Example 132]
melting point: 148 to 150 °C

COMPOUND: COc1cc2c(Oc3ccc(NS(=O)(=O)c4cccs4)cc3F)ccnc2cc1OCCCN1CCN(C)CC1 [Example 31]
melting point: 201 to 202 °C

COMPOUND: COc1cc2c(Oc3ccc(NS(=O)(=O)c4cccc(C(F)(F)F)c4)cc3F)ccnc2cc1OCCCN1CCCCC1 [Example 5]
melting point: 123 to 126 °C

COMPOUND: COc1cc2c(Oc3ccc(NS(=O)(=O)c4ccc(Cl)cc4F)cc3F)ccnc2cc1OCCCN1CCCCC1 [Example 3]
melting point: 122 to 124 °C

COMPOUND: COc1cc2c(Oc3ccc(NS(=O)(=O)c4cccc(Oc5ccccc5)c4)cc3F)ccnc2cc1OCCCN1CCCCC1 [Example 10]
melting point: 146 to 147 °C

Please look at the following compound next.
Form field melting point, entry COc1ccc2nccc(Oc3ccc(NS(=O)(=O)c4c(F)cccc4F)cc3F)c2c1 [Example 200] : 227 to 228 °C
